Provide the recorded pKd for the entries that follow.
target: PAS1(23–168); dimerization helix-containing PAS1 of TodS (Pseudomonas putida, UniProt A5W4E3, I114V); construct: PAS1 sensor domain with dimerization helix, residues 23-168; N-terminal His6 tag kept; E. coli C41(DE3); dimer in solution; assay: ITC; assay type: binding
Sequence (A5W4E3 23-168 I114V): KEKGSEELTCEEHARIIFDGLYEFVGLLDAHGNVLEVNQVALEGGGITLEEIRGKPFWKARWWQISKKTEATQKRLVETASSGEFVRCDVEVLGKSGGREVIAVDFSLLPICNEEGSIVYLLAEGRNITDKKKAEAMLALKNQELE
For clarity, pKd is expressed as the negative log10 of concentration in mol/L.

Enquiry: Any idea what its pKd is? The compound is Cc1ccccc1 [toluene]
Return: 5.08

Enquiry: Any idea what its pKd is? The compound is Cc1cccc(C)c1 [m-xylene]
Return: 5.21

----------
molecular target: PAS1(23–168); dimerization helix-containing PAS1 of TodS (Pseudomonas putida); construct: PAS1 sensor domain with dimerization helix, residues 23-168; N-terminal His6 tag kept; E. coli C41(DE3); dimer in solution; test: ITC
Readout: Kd (µM)
Note: unit µM is implicit; provide only the numeric part.

Enquiry: Endpoint output: Kd of Cc1ccccc1 [toluene] . Value?
Return: 8.5

Enquiry: Sample Cc1cccc(C)c1 [m-xylene] — what was its Kd?
Return: 9.5
